Measurement record for human DP2 receptor (Homo sapiens); quantity recorded: IC50.

Check out these entries, answers already filled in.
molecule="CCN(Cc1cc(C(F)(F)F)ccc1-c1cc(Cc2nn[nH]n2)ccc1OC)C(=O)C1CC1 [Compound 2-7]" property=IC50 test_value="1000 to 30000 nM"
molecule="CCN(Cc1cc(C(F)(F)F)ccc1-c1cc(CC(=O)O)ccc1OC)C(=O)C1(O)CC1 [Compound 1-209]" property=IC50 test_value="< 300 nM"
molecule="CCN(Cc1cc(C(F)(F)F)ccc1-c1cc(CC(=O)O)ccc1OC)/C(=N/C#N)NCc1ccc(OC)cc1 [Compound 1-114]" property=IC50 test_value="< 300 nM"
molecule="CCN(Cc1cc(C(F)(F)F)ccc1-c1cc(CC(=O)O)ccc1OC)C(=O)Nc1ccccc1 [Compound 1-121]" property=IC50 test_value="< 300 nM"
molecule="CCN(Cc1ccc(OC)cc1-c1cc(CC(=O)O)ccc1OC)C(=O)NCc1ccccc1 [Compound 1-197]" property=IC50 test_value="< 300 nM"
molecule="CCN(Cc1cc(C(F)(F)F)ccc1-c1cc(C(F)(F)F)cc(C(C)(C)C(=O)O)c1)C(=O)C1CC1 [Compound 1-236]" property=IC50 test_value="300 to 1000 nM"

Value sought: IC50, system human DP2 receptor (Homo sapiens), item CCN(Cc1cc(-c2ccc(F)cn2)ccc1-c1cc(CC(=O)O)ccc1OC)C(=O)C1CC1 [Compound 1-249] . Result: < 300 nM

Value sought: IC50, system human DP2 receptor (Homo sapiens), item COc1ccc(CC(=O)O)cc1-c1ccc(C(F)(F)F)cc1CN(CCO)C(C)=O [Compound 1-5] . Result: < 300 nM

Value sought: IC50, system human DP2 receptor (Homo sapiens), item CCN(Cc1cc(C(F)(F)F)ccc1-c1cc(CC(=O)O)ccc1OC)C(=O)CSc1ccccc1 [Compound 1-117] . Result: < 300 nM

Value sought: IC50, system human DP2 receptor (Homo sapiens), item COc1ccc(CC(=O)O)cc1-c1ccc(C(F)(F)F)cc1CN(C(C)=O)[C@@H](C)[C@H](O)c1ccccc1 [Compound 1-104] . Result: 1000 to 30000 nM

Value sought: IC50, system human DP2 receptor (Homo sapiens), item CCOc1ccc(-c2ccc(-c3cc(CC(=O)O)ccc3OC)c(CN(CC)C(=O)NCc3ccccc3)c2)cn1 [Compound 1-228] . Result: < 300 nM

Value sought: IC50, system human DP2 receptor (Homo sapiens), item CCN(Cc1cc(C(F)(F)F)ccc1-c1cc([C@H](C)C(=O)O)ccc1OC)C(=O)C1CC1 [Compound 1-225] . Result: 1000 to 30000 nM

Value sought: IC50, system human DP2 receptor (Homo sapiens), item CCN(Cc1cc(C(F)(F)F)ccc1-c1cc(CC(=O)O)ccc1OC)C(=O)NCc1cccnc1 [Compound 1-198] . Result: < 300 nM

Value sought: IC50, system human DP2 receptor (Homo sapiens), item CCN(Cc1cc(C(F)(F)F)ccc1-c1cc(CC(=O)O)ccc1OC)C(=O)Cc1ccccc1 [Compound 1-207] . Result: < 300 nM

Value sought: IC50, system human DP2 receptor (Homo sapiens), item COc1ccc(CC(=O)O)cc1-c1ccc(C(F)(F)F)cc1CN(CC(=O)O)C(C)=O [Compound 1-8] . Result: 1000 to 30000 nM

====

# study.target: recombinant human CRTH2 receptor (Homo sapiens)
# Construct: expressed in transfected cells
# Sequence (Q9Y5Y4 whole entry): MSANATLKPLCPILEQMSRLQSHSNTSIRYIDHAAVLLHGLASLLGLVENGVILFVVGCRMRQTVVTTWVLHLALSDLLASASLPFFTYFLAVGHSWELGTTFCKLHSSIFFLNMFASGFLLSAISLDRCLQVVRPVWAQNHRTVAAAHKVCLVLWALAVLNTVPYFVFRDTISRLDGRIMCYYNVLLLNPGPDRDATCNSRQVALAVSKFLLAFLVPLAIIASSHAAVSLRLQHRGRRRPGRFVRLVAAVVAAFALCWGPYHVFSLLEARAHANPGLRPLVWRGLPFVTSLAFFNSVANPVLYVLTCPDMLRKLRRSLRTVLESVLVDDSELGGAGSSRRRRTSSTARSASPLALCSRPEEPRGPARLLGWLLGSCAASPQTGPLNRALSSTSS
# test.name: GTPγS binding assay
# Type: biochemical
# study.conditions: +HSA (0.2% human serum albumin), 80 nM PGD2, CHO cell membranes; read-out: hDP2 GTPγS μM (+HSA)
# Experimental: The ability of a compound to inhibit binding of GTP to DP2 is assessed via a membrane GTPγS assay. […] Scintillant is then added to the plates and the radioactivity retained on the filters is determined on a Packard TopCount (Perkin Elmer). Specific binding is determined as total radioactive binding minus non-specific binding in the absence of the ligand (80 nM PGD2). IC50s were determined using Graphpad prism analysis of drug titration curves.
property: IC50

compound="COc1ccc(CC(=O)O)cc1-c1ccc(C(F)(F)F)cc1CN(C(C)=O)C1Cc2ccccc2C1 [Compound 1-17]" study_target="recombinant human CRTH2 receptor (Homo sapiens)" test_value="< 0.3 µM"
compound="CCN(Cc1cc(C(F)(F)F)ccc1-c1ccc(OC)c(CC(=O)O)c1)C(=O)OCc1ccccc1 [Compound 1-107]" study_target="recombinant human CRTH2 receptor (Homo sapiens)" test_value="< 0.3 µM"
compound="CCN(Cc1cc(C(F)(F)F)ccc1-c1cc(CC(=O)O)ccc1OC)C(=O)Nc1ccccc1Br [Compound 1-47]" study_target="recombinant human CRTH2 receptor (Homo sapiens)" test_value="< 0.3 µM"

Entry CCN(Cc1cc(C(F)(F)F)ccc1-c1cc(CC(=O)O)ccc1OC)C(=O)CSc1ccccc1 [Compound 1-117] , IC50 reported as < 0.3 µM

Entry CCN(Cc1cc(C(F)(F)F)ccc1-c1cc(CC(=O)O)ccc1OCC1CC1)C(=O)OCc1ccccc1 [Compound 1-130] , IC50 reported as < 0.3 µM

Entry COc1ccc(CC(=O)O)cc1-c1ccc(C(F)(F)F)cc1CN(CC(=O)O)C(C)=O [Compound 1-8] , IC50 reported as 1 to 30 µM

Entry CCN(Cc1cc(C(F)(F)F)ccc1-c1cc(CC(=O)O)ccc1OC)/C(=N/C#N)NCc1ccc(OC)cc1 [Compound 1-114] , IC50 reported as < 0.3 µM

Entry COc1ccc(CC(=O)O)cc1-c1ccc(C(F)(F)F)cc1CN(CCN(C)C)C(C)=O [Compound 1-7] , IC50 reported as 0.3 to 1 µM
